B1: Caulobacter ParB omega fusion; a variant is named by its letters at X, in order, B8GW30 (parent)
chain: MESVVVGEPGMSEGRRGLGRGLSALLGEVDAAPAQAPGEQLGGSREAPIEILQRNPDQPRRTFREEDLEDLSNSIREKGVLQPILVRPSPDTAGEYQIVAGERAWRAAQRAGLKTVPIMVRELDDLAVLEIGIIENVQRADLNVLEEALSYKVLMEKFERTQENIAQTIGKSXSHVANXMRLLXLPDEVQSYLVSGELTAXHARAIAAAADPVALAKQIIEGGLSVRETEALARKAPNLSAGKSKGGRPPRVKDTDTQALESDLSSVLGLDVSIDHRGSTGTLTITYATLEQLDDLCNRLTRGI

Variants of: B1
ASSAY PROTOCOL: one-hybrid fitness for binding NBS DNA (the Noc-binding site; scaled: cognate 1, non-cognate 0); higher = stronger binding
TEST CONDITIONS: with NBS DNA site
In all, about 81,000 sequences were measured (“one-hybrid fitness for binding NBS DNA”: median about -0.1, highest 2% from about 0.36 on). The sample as a whole holds a higher share of the highest values than the screen did.
MEASURED PARAMETER: one-hybrid fitness for binding NBS DNA

>  <CHANGE>
CKKG

>  <one-hybrid fitness for binding NBS DNA>
≤ 0.2

$$$$
>  <CHANGE>
CMYT

>  <one-hybrid fitness for binding NBS DNA>
≤ 0.2

$$$$
>  <CHANGE>
RMPQ

>  <one-hybrid fitness for binding NBS DNA>
≤ 0.2

$$$$

Return one-hybrid fitness for binding NBS DNA for the following variant: SQEG
≤ 0.2

Return one-hybrid fitness for binding NBS DNA for the following variant: RIDV
≤ 0.2

Return one-hybrid fitness for binding NBS DNA for the following variant: RRYV
0.254

Return one-hybrid fitness for binding NBS DNA for the following variant: DWKY
≤ 0.2

Return one-hybrid fitness for binding NBS DNA for the following variant: LAMD
≤ 0.2

Return one-hybrid fitness for binding NBS DNA for the following variant: NNIC
≤ 0.2

Cited source: a collection of fitness landscapes (doi:10.1016/j.celrep.2020.107928)
